The values you see were collected from ChEMBL document CHEMBL3734649.

Test: Anticancer activity against human DU145 cells after 48 hrs by MTT assay
Format: functional, cell-based
Conditions: DU-145, 48 h
// values below are reported IC50
Answer with a number only, understood to be in µM.

O=C1N(Cc2ccc(Br)cc2)c2ccc(Cl)cc2C1(O)Cc1nnn[nH]1 (stereo not drawn) | 19.5
CCN1C(=O)C(O)(Cc2nnn[nH]2)c2cc(Cl)ccc21 (stereo not drawn) | 21.5
CN1C(=O)C(O)(Cc2nnn[nH]2)c2ccccc21 (stereo not drawn) | 36.8
CCN1C(=O)C(O)(Cc2nnn[nH]2)c2cc(C)ccc21 (stereo not drawn) | 14.6
Cc1ccc2c(c1)C(O)(Cc1nnn[nH]1)C(=O)N2Cc1ccccc1 (stereo not drawn) | 4.26
O=C1N(Cc2ccc(Br)cc2)c2ccccc2C1(O)Cc1nnn[nH]1 (stereo not drawn) | 7.01

Now for the compound whose IC50 we want.
Look at this compound and give its reported IC50. O=C1N(Cc2ccc(Br)cc2)c2ccc(F)cc2C1(O)Cc1nnn[nH]1 (stereo not drawn) 14.4

====

Assay: Anticancer activity against human DU145 cells after 48 hrs by MTT assay
Assay type: functional, cell-based
Conditions: DU-145, 48 h
// values below are reported pIC50
The quantity pIC50 is defined as the negative base-10 logarithm of the molar concentration.

O=C1N(Cc2ccccc2)c2ccc(Br)cc2C1(O)Cc1nnn[nH]1 (stereo unspecified) | 4.34
O=c1[nH]cc(F)c(=O)[nH]1 | 4.41
O=C1N(Cc2ccc(Br)cc2)c2ccc(Br)cc2C1(O)Cc1nnn[nH]1 (stereo unspecified) | 4.22

Look at this molecule and give its reported pIC50. CN1C(=O)C(O)(Cc2nnn[nH]2)c2cc(Cl)ccc21 (stereo unspecified) 4.12

====

Test: Anticancer activity against human DU145 cells after 48 hrs by MTT assay
Type: functional, cell-based
Settings: DU-145, 48 h
pIC50: −log10 of the molar value.
// values below are reported pIC50

Solved cases (4 shown):
CCN1C(=O)C(O)(Cc2nnn[nH]2)c2cc(Br)ccc21 (stereo unspecified) | < 4.00
O=C1N(Cc2ccccc2)c2ccc(F)cc2C1(O)Cc1nnn[nH]1 (stereo unspecified) | < 4.00
CCN1C(=O)C(O)(Cc2nnn[nH]2)c2ccccc21 (stereo unspecified) | < 4.00
Cc1ccc2c(c1)C(O)(Cc1nnn[nH]1)C(=O)N2C (stereo unspecified) | < 4.00

Look at this compound and give its reported pIC50. CN1C(=O)C(O)(Cc2nnn[nH]2)c2cc(Br)ccc21 (stereo unspecified) < 4.00

Look at this compound and give its reported pIC50. CN1C(=O)C(O)(Cc2nnn[nH]2)c2cc(F)ccc21 (stereo unspecified) < 4.00
